procedure-details: inhibitors of hydroxyurea-induced Chk1 phosphorylation, primary screen, imaging, HeLa, phospho-Chk1 nuclear intensity (AID 1187); also: test concentration not given here
particulars: hydroxyurea-induced phospho-Chk1 immunofluorescence imaging, higher = more signal
Given measured z-score, output Met if it is greater than or equal to -0.3 and Not met if not.

Worked set:
molecule	assigned-label
COC(=O)[C@@]1(Cc2ccc(OC)cc2)[C@H]2c3cc(C(=O)N4CCCC4)n(Cc4cc(F)cc5c4OCOC5)c3C[C@H]2CN1C(=O)c1ccccc1	Met
CC(C)(C)N1CC=CC23O[C@@H]4/C=C\CCCOC(=O)C4[C@H]2C(=O)N(CCO)[C@@H]3C1=O (stereo partly specified)	Met
CCOc1cc(C(O)C2C=CC3C(=O)N(c4ccccc4)C(=O)C3N2Nc2ccc([N+](=O)[O-])cc2)ccc1O (stereo unspecified)	Not met
C=CCOC(=O)[C@H]1[C@@H]2C(=O)O[C@@H](c3ccccc3)[C@@H](c3ccccc3)N2[C@@H](c2ccc(OCCOC(=O)[C@@H]3C[C@@H]4C(=O)N5CCC[C@H]5C(=O)N4[C@@H]3c3ccc(O)cc3)cc2)[C@]12C(=O)Nc1ccccc12	Not met
Cc1cc(C)cc(N2C(=O)CS(=O)(=O)C2c2cccc([N+](=O)[O-])c2)c1 (stereo unspecified)	Met

Query :: Is reported z-score greater than or equal to -0.3 here: COCCOC(=O)N1C(=O)[C@@]2(c3cc(C#CCNC(N)=O)ccc31)[C@H](C(=O)N1CCN(c3ncccn3)CC1)[C@H]1C(=O)O[C@H](c3ccccc3)[C@H](c3ccccc3)N1[C@@H]2c1ccccc1OCCO
Result :: Met

src = PubChem BioAssay
